Biological target: T1, mouse IL-2Rα (mouse) (UniProt P01590)
T1 sequence (looked up): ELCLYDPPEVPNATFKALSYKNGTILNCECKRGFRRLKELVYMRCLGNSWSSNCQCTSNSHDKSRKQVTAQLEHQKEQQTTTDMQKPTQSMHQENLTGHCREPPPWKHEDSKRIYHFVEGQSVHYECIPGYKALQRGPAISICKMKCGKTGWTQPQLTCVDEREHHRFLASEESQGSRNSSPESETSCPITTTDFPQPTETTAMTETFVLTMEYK
Experiment: P.E. binding ELISA
measure: OD450 nm (OD450 nm)
Your answer is read as OD450 nm, so omit the unit and give the number.

Input line: Looking for the measured OD450 nm of 3-MP01E03 VHH (periplasmic extract) (VHH) VHH: QVQLVESGGGLVQAGGSLRLSCTASGRTLSSYSMAWFRQAADKGREFVTAISSSGVVTHVLDSVKGRFTISRDNAKNTVYLQMNSLQPEDTALYFCAGTASSYSTYEANYNYWGQGTLVTVSS , can you help?
Output line: 0.046

Input line: Looking for the measured OD450 nm of 6-MP01G05 VHH (periplasmic extract) (VHH) VHH: QVQLQESGGGLVQAGGSLRLSCAASGRTFSSYAMGWFRQAPGKEREFVAVISWNVDNTEYTDSVKGRFTISRDNDKNMVYLQMNSLKPEDTAVYYCAADSIPLSSDMSPTATEYGYWGQGTQVTVSS , can you help?
Output line: 0.046

Input line: Looking for the measured OD450 nm of 8-MP01C12 VHH (periplasmic extract) (VHH) VHH: QVQLVESGGGLVQPGGSLRLSCATSGFTFSNNFMSWVRQAPGKGLEFVSTISYGGESTTYAEAVKGRFTISRDNAKNTLYLQMNNLKPEDTAIYYCAKATSYTSIRGAPRGQGTQVTVSS , can you help?
Output line: 0.045

Input line: Looking for the measured OD450 nm of 1-MP01H01 VHH (periplasmic extract) (VHH) VHH: EVQLVESGGGLVQAGGSLRLSCAASGRTFRTHNMGWFRRAPGKEREFVAAISWNVDNTLYADSVKGRFTISRDNGRNMVYLQMNSLKPEDTAVYYCAADNIPLSSDVAATATEYDYWGQGTQVTVSS , can you help?
Output line: 0.048

Input line: Looking for the measured OD450 nm of 5-MP01F05 VHH (periplasmic extract) (VHH) VHH: EVQLVESGGGLVQAGGSLRLSCAASIRAFTTWSMAWFRQAPGKEREYVARINVSGSVTYYADFVKGRFTISRDNAKKTMYLEMNNLKPEDTALYYCAADRTGVGTNDYNYWGQGTQVTVSS , can you help?
Output line: 0.046

Input line: Looking for the measured OD450 nm of 2-MP01A02 VHH (periplasmic extract) (VHH) VHH: QVQLVESGGGLVQPGGSLRLSCATSGFTFRNNFMSWVRQAPGKGLEWVSTISYGGESTTYAESVKGRFTISRDNAKNTLYLQMNNLKPEDTAVYYCAKATSYDSIRSGSRGQGTQVTVSS , can you help?
Output line: 0.046

Each recorded value in this set is attributed to patent US20240409645A1.
